- MEASURED_TARGET: Serine/threonine-protein kinase PLK4 (Homo sapiens, UniProt O00444)
- Sequence (O00444 whole entry): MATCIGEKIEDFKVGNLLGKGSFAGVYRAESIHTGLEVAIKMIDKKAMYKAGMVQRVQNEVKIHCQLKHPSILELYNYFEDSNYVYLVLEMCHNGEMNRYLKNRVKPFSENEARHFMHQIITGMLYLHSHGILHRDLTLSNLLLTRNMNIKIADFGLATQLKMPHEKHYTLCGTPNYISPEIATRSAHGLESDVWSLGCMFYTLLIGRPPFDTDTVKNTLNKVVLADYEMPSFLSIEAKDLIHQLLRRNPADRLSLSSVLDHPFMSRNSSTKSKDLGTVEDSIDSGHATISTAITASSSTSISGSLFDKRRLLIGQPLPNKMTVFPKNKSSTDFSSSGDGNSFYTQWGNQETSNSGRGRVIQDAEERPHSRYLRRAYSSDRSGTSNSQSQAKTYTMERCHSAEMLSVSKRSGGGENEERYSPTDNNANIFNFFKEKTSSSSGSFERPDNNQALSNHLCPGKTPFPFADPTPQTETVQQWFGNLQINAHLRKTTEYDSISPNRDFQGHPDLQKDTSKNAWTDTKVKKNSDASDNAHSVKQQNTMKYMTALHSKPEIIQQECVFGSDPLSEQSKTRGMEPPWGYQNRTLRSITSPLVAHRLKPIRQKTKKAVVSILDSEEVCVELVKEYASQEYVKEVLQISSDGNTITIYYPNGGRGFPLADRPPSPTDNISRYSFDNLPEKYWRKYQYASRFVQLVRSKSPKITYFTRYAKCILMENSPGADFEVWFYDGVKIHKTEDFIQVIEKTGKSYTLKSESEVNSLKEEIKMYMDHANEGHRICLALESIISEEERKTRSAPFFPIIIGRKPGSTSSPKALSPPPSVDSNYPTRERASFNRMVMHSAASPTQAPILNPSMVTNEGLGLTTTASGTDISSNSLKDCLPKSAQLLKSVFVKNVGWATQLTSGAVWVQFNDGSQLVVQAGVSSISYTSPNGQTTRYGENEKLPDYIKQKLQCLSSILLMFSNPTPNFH
- TEST_METHOD_NOTES: Inhibition of human PLK4
QUANTITY: Ki

>>> measurement("COCCOc1ccc2cc1OCC(=O)N(C)CCCN(C)Cc1c[nH]c3ncnc(c13)N2")
"25 nM"
>>> measurement("COc1cc2c(cc1F)C(c1ccccc1Cl)=Nc1c(n[nH]c1C)N2")
"11 nM"

---

- MEASURED_TARGET: Receptor-type tyrosine-protein kinase FLT3 (Homo sapiens)
- Sequence (P36888 whole entry): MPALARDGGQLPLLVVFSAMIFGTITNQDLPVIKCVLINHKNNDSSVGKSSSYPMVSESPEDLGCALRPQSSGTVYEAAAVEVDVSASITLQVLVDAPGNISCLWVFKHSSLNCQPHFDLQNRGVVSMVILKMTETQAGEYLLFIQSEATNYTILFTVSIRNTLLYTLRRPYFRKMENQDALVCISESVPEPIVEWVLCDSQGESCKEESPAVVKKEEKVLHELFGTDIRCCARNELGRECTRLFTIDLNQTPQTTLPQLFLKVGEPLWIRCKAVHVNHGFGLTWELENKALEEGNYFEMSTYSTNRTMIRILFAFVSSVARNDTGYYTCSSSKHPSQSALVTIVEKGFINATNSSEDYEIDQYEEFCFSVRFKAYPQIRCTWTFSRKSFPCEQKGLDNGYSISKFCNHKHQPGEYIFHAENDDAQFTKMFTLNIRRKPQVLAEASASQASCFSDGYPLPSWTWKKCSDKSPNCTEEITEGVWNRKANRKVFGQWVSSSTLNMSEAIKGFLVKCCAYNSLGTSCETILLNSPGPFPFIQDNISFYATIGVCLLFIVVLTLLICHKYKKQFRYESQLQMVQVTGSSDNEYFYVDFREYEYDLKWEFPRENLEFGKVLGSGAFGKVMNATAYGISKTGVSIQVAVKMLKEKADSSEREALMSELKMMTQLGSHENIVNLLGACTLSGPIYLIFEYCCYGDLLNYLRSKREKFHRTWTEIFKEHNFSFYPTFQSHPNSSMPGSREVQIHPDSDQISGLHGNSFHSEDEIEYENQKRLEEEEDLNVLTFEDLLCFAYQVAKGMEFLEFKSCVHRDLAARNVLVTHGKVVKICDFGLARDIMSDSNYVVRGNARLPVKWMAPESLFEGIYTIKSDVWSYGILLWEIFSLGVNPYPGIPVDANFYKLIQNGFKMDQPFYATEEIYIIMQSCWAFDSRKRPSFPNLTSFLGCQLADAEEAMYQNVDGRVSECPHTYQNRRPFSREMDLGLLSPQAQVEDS
QUANTITY: IC50 (µM)

>>> measurement("COc1ccc2c(c1)/C(=C\\c1ccc3c(/C=C/c4ccc(N5CCN(C)CC5)nc4)n[nH]c3c1)C(=O)N2")
0.18

---

Serine/threonine-protein kinase PLK1 (Homo sapiens, UniProt P53350) measurements of IC50, listed per entry.
Sequence (P53350 whole entry): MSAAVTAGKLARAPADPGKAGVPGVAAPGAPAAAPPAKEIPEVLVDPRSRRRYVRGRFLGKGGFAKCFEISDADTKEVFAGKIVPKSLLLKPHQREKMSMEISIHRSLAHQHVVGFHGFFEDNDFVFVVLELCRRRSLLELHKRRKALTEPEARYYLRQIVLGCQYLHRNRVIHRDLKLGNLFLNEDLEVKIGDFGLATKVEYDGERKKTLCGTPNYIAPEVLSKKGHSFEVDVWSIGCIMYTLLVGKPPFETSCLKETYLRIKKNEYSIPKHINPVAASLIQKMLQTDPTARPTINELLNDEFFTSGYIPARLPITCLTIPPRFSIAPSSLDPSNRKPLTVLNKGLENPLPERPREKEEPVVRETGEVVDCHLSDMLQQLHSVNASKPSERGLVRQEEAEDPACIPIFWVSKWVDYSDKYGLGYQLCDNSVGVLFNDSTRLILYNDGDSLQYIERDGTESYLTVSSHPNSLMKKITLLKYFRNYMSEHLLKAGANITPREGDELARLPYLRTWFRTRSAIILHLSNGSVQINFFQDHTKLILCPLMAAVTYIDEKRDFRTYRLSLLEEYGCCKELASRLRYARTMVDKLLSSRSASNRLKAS
QUANTITY: IC50

>>> measurement("CN1CCN(c2ccc(/C=C/c3n[nH]c4cc(/C=C5/C(=O)Nc6ccccc65)ccc34)cn2)CC1")
"> 10 µM"
>>> measurement("COc1cc(/C=C2\\C(=O)Nc3ccc(Br)cc32)cc(Cl)c1O")
"3.6 µM"
>>> measurement("O=C1Nc2ccccc2/C1=C/c1ccc2[nH]ncc2c1")
"20 µM"
>>> measurement("O=C1Nc2ccc(O)cc2/C1=C\\c1ccc2c(/C=C/c3ccncc3)n[nH]c2c1")
"> 10 µM"
>>> measurement("O=C1Nc2ccccc2/C1=C\\c1ccc2c(/C=C/c3ccccn3)n[nH]c2c1")
"> 10 µM"
>>> measurement("COc1cc(/C=C2\\C(=O)Nc3ccc(Br)cc32)cc(Br)c1OC")
"> 10 µM"
>>> measurement("O=C1Nc2ccccc2/C1=C\\c1ccc2c(/C=C/c3ccc(C(=O)O)cc3)n[nH]c2c1")
"> 10 µM"
>>> measurement("COc1ccc2c(c1)/C(=C\\c1ccc3c(/C=C/c4ccncc4)n[nH]c3c1)C(=O)N2")
"> 10 µM"
>>> measurement("O=C1Nc2cc(Cl)ccc2/C1=C\\c1ccc2cn[nH]c2c1")
"26 µM"
>>> measurement("O=C1Nc2ccccc2/C1=C\\c1ccc2c(/C=C/c3ccccc3)n[nH]c2c1")
"> 10 µM"

Data provenance: ChEMBL document CHEMBL2406977
